Listed here are compounds together with their documented Ratio.
TEST: The ratio of aerobic CT10 to hypoxic CT10.
Assay type: functional

Cc1ncc([N+](=O)[O-])n1CCNC(=O)CCCCn1ccnc1[N+](=O)[O-] | > 7
Cc1ncc([N+](=O)[O-])n1CCNC(=O)CCn1ccnc1[N+](=O)[O-] | > 7

Attention now shifts to the item below.
Qu. Need Ratio, item O=C(CCCn1ccnc1[N+](=O)[O-])NCCn1ccnc1[N+](=O)[O-]
Ans. > 6

These data points were gathered from ChEMBL document CHEMBL1127318.
